For each of the compounds below, state its pIC50.
Assayed system: RIPK1 (Homo sapiens (Human))
Assay protocol: RIPK1 ADP-Glo biochemical kinase assay
Condition parameters: read-out: RIPK1 ADP-Glo Kinase (IC50)
Just the number, please; pIC50 means minus log10 of the concentration in mol/L.

Report its pIC50 with RIPK1 (Homo sapiens (Human)) as the test system: CN[C@@H](C)C(=O)OC1(C#Cc2ccc3c(c2)N(C)C(=O)[C@@H](NC(=O)c2cc(Oc4ccccc4)ccn2)CO3)COC1 [Compound I-193]
7.26

Please look at C#Cc1ccc2c(c1)N(C)C(=O)[C@@H](NC(=O)c1n[nH]c(Cc3ccccc3)n1)CO2 [Compound I-81] and tell me its recorded pIC50 on RIPK1 (Homo sapiens (Human)).
7.72

# return pIC50 for CC(C)N1CC(O)(C#Cc2ccc3c(c2)N(C)C(=O)[C@@H](NC(=O)c2cc(Oc4ccccc4)ccn2)CO3)C1 [Compound I-195] , test system: RIPK1 (Homo sapiens (Human))
7.82

Output reported pIC50 of the compound CN1C(=O)[C@@H](NC(=O)c2ncn(Cc3ccccc3)n2)COc2ccc(C#CC3(O)CCCC3)cc21 [Compound I-52] on RIPK1 (Homo sapiens (Human)).
7.60

# return pIC50 for CN1C(=O)[C@@H](NC(=O)c2n[nH]c(Cc3ccccc3)n2)COc2ccc(CCC(=O)N3CCCC3)cc21 [Compound I-10] , test system: RIPK1 (Homo sapiens (Human))
7.37

Output reported pIC50 of the compound CN1C(=O)[C@@H](NC(=O)c2nnc(Cc3ccccc3)o2)COc2ccc(C#CC(C)(C)O)cc21 [Compound I-71] on RIPK1 (Homo sapiens (Human)).
7.66

Provide the reported pIC50 (system: RIPK1 (Homo sapiens (Human))) for CN1C(=O)[C@@H](NC(=O)c2cc(Oc3ccc(F)cc3)ccn2)COc2ccc(C#CC3(O)COC3)cc21 [Compound I-111]
7.66

----------
System: L929 cells
Assay protocol: L929 cell necroptosis assay (TNFa + zVAD, CellTiter-Glo)
Type: cell-based, murine
Condition parameters: Mus musculus, L929, L929 cells, TNFa + zVAD; read-out: L929-CTG-recovery, L929, TNFa + zVAD (IC50)
Counter-ions that a name gives are not always drawn.
Measure: pIC50
In simple prose, pIC50 is minus the logarithm base ten of a concentration in moles per litre.

Recall the reported pIC50 of CN1C(=O)[C@@H](NC(=O)c2n[nH]c(Cc3ccccc3)n2)COc2ccc(CCCCO)cc21 on L929 cells and write it down.
5.66

GET pIC50 where system = L929 cells and item = CN1C(=O)[C@@H](NC(=O)c2cc(Oc3ccccc3)ccn2)COc2ccc(C#CC3(OC(=O)NCCCN4CCOCC4)COC3)cc21
7.05

GET pIC50 | system: L929 cells | item: CN(C)CC#Cc1ccc2c(c1)N(C)C(=O)[C@@H](NC(=O)c1cc(Oc3ccccc3)ccn1)CO2
6.88

Write down measured pIC50 (L929 cells) for this compound. CN1C(=O)[C@@H](NC(=O)c2n[nH]c(Cc3ccc(F)cc3)n2)COc2ccc(C#CC(C)(C)O)cc21
9.10

Specify pIC50 for CN1C(=O)[C@@H](NC(=O)c2n[nH]c(Cc3ccccc3)n2)COc2ccc(CN3CCn4c(nnc4C(F)(F)F)C3)cc21 , system L929 cells.
8.82

Report value only: pIC50, L929 cells, CN1C(=O)[C@@H](NC(=O)n2cc(Cc3ccccc3)cn2)COc2ccc(C#CC3(O)CCC3)cc21
7.63

Print L929 cells pIC50 for CN1C(=O)[C@@H](NC(=O)c2cc(Oc3ccccc3)ccn2)COc2ccc(CN3CCC4(CCOCC4)CC3)cc21 .
4.94

Report pIC50 under test system L929 cells for COC1(C#Cc2ccc3c(c2)N(C)C(=O)[C@@H](NC(=O)c2cc(Oc4ccccc4)ccn2)CO3)COC1 .
7.37

Please look at CN1C(=O)[C@@H](NC(=O)n2cc(Cc3ccc(F)cc3F)cn2)COc2ccc(C#CC(C)(C)CN)cc21 [Compound I-241, hydrochloride] and tell me its recorded pIC50 on L929 cells.
5.68

Lab note: record pIC50 of CN1C(=O)[C@@H](NC(=O)c2n[nH]c(Cc3ccccc3)n2)COc2ccc(C#CC(C)(C)O)cc21 tested on L929 cells.
7.14

Answer briefly: pIC50 recorded on L929 cells for C=C(C)C#Cc1ccc2c(c1)N(C)C(=O)[C@@H](NC(=O)c1n[nH]c(Cc3ccccc3)n1)CO2
9.15

Provide pIC50, recorded with L929 cells, of CN1C(=O)[C@@H](NC(=O)c2cc(Oc3ccccc3)ccn2)COc2ccc(C#Cc3cn(C)cn3)cc21
8.40

Check L929 cells data and give pIC50 for CN1C(=O)[C@@H](NC(=O)c2ncn(Cc3ccccc3)n2)COc2ccc(CCC(=O)N3CCCC3)cc21 .
5.91

Report pIC50 under test system L929 cells for CN1C(=O)[C@@H](NC(=O)n2cc(Cc3ccccc3)cn2)COc2ccc(C#CC(C)(C)C)cc21 .
6.57

----------
Assayed system: RIPK1 (Homo sapiens (Human), UniProt Q13546)
Sequence (Q13546 whole entry, species assumed): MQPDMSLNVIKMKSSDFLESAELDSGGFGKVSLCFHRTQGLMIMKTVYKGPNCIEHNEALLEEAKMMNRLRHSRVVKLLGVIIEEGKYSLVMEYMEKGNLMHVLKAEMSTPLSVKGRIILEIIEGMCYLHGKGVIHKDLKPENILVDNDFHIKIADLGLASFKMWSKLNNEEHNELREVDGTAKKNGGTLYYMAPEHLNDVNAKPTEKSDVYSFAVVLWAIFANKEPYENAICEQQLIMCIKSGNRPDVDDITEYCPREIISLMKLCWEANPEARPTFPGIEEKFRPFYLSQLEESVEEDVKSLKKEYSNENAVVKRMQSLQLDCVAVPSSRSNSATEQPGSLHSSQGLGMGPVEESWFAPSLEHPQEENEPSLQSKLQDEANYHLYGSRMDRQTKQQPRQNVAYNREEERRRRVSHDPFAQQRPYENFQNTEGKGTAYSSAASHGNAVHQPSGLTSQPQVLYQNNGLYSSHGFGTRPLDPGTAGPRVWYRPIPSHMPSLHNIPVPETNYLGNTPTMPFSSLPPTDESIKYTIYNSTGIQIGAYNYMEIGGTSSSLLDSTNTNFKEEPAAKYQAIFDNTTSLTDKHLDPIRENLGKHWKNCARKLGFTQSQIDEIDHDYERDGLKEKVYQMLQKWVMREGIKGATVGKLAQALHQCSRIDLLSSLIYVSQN
Assay protocol: RIPK1 ADP-Glo biochemical kinase assay
Condition parameters: read-out: RIPK1 ADP-Glo Kinase (IC50)
pIC50: −log10 of the molar value. Counter-ions that a name gives are not always drawn.
Decide by pIC50: equal to or exceeding 7 means satisfied, less means not satisfied.

pIC50 >= 7 for C[C@H](N)C(=O)OC1(C#Cc2ccc3c(c2)N(C)C(=O)[C@@H](NC(=O)c2cc(Oc4ccccc4)ccn2)CO3)COC1 [Compound I-194, trifluoroacetic acid salt] ?
satisfied

Is pIC50 for CCN1C(=O)[C@@H](NC(=O)c2n[nH]c(Cc3ccccc3)n2)COc2ccc(C#CC(C)(C)O)cc21 at or above 7?
not satisfied

Could you please find out whether CN1C(=O)[C@@H](NC(=O)c2ccc(Oc3ccccc3)cn2)COc2ccc(C#CC(C)(C)O)cc21 has pIC50 that meets 7 or exceeds it?
not satisfied

Entry COc1cccc(-c2ccnc(C(=O)N[C@H]3COc4ccc(C#CC(C)(C)O)cc4N(C)C3=O)c2)c1 : is its pIC50 no less than 7?
not satisfied

Would you say CN1C(=O)[C@@H](NC(=O)n2cc(Cc3ccc(F)cc3)cn2)COc2ccc(C#CC3(O)CCC3)cc21 shows pIC50 at minimum 7?
satisfied

Is pIC50 for CN1C(=O)[C@@H](NC(=O)c2ncn(Cc3ccccc3)n2)COc2ccc(C#CCCOc3ccc4cccnc4c3)cc21 at or above 7?
satisfied

State whether the measured pIC50 reaches 7, counting equality as reaching it, for CN1C(=O)[C@@H](NC(=O)n2cc(Cc3ccc(F)cc3)cn2)COc2ccc(C#CC(C)(C)N)cc21
satisfied

Does pIC50 meet or surpass 7 for CN1C(=O)[C@@H](NC(=O)c2cc(Oc3ccccc3)ccn2)COc2ccc(C#CC(C)(C)C)cc21 ?
not satisfied

Is pIC50 for CN1C(=O)[C@@H](NC(=O)c2cc(Oc3ccc(C#N)cc3)ccn2)COc2ccc(C#CC(C)(C)O)cc21 at or above 7?
satisfied

Quick check, pIC50 >= 7? C[C@H](N)C(=O)OCC(C)(C)C#Cc1ccc2c(c1)N(C)C(=O)[C@@H](NC(=O)c1cc(Oc3ccccc3)ccn1)CO2
satisfied

Item CN1C(=O)[C@@H](NC(=O)c2cc(Oc3ccccc3)ccn2)COc2ccc(C#CC3(OC(=O)CCC(=O)O)COC3)cc21 [Compound I-165] with pIC50 of 7 or above?
satisfied

# check: pIC50 of CN1C(=O)[C@@H](NC(=O)c2cc(Oc3ccc(F)cc3)ccn2)COc2ccc(C#CC(C)(C)O)cc21 is greater than or equal to 7
satisfied

Given CN1C(=O)[C@@H](NC(=O)c2cc(Oc3ccccc3)ccn2)COc2ccc(C#CC3(O)CNC3)cc21 , state whether its pIC50 is at least 7.
satisfied

Given the entry CN1C(=O)[C@@H](NC(=O)n2cc(Cc3ccc(F)cc3)cn2)COc2ccc(C#CC3(O)CC4(COC4)C3)cc21 , answer whether its pIC50 meets or surpasses 7.
satisfied

I'd appreciate it if you could say whether CN1C(=O)[C@@H](NC(=O)c2cc(Oc3ccccc3)ccn2)COc2ccc(C#CC3(O)CCC3)cc21 has pIC50 at least equal to 7.
satisfied

Does the compound CN1C(=O)[C@@H](NC(=O)c2cc(Cc3ccc(F)cc3)ccn2)COc2ccc(C#CC(C)(C)O)cc21 have recorded pIC50 that is 7 or more?
satisfied

----------
Tested on: L929 cells
Assay protocol: L929 cell necroptosis assay (TNFa + zVAD, CellTiter-Glo)
Type: cell-based, murine
Condition parameters: Mus musculus, L929, L929 cells, TNFa + zVAD; read-out: L929-CTG-recovery, L929, TNFa + zVAD (IC50)
Measure: pIC50
# pIC50: negative log10 of molar concentration; output just the value

Specify measured pIC50 for CN1C(=O)[C@@H](NC(=O)c2cc(Oc3ccccc3)ccn2)COc2ccc(C#CC3(O)CCN(C(=O)c4cc(Oc5ccccc5)ccn4)CC3)cc21 .
7.18

For the molecule CC(=O)O[C@@H](C(=O)O)[C@@H](OC(C)=O)C(=O)OCC(C)(C)C#Cc1ccc2c(c1)N(C)C(=O)[C@@H](NC(=O)c1cc(Oc3ccccc3)ccn1)CO2 , give its measured pIC50 value.
5.52

Look up and report measured pIC50 for this entry: C[C@H](N)C(=O)OCC(C)(C)C#Cc1ccc2c(c1)N(C)C(=O)[C@@H](NC(=O)c1cc(Oc3ccccc3)ccn1)CO2
7.11

Kindly indicate its recorded pIC50. Item: CN1C(=O)[C@@H](NC(=O)c2n[nH]c(Cc3cccc(F)c3)n2)COc2ccc(C#CC(C)(C)O)cc21
9.05

Item CN1C(=O)[C@@H](NC(=O)c2n[nH]c(Cc3ccccc3)n2)COc2ccc(CCC(=O)Nc3ccc4cn[nH]c4c3)cc21 : provide pIC50
6.37

Annotate the molecule CN1C(=O)[C@@H](NC(=O)c2cc(Oc3ccccc3)ccn2)COc2ccc(C#CC3(F)CN(CC(F)(F)F)C3)cc21 with its measured pIC50.
6.99
